test system: Escherichia coli TOP10; test: shrunken log2 fold change of peptide-encoding DNA abundance (4.5 h post-induction vs induction); higher = less antimicrobial activity (less host growth inhibition); conditions: time post-induction: 4.5 h; library: site-saturation at positions 5, 18, 19, 20
Is shrunken log2 fold change at least -0.01? Then 1.0. If not, 0.0.

Request: Given the entry `RRIRKRPPRLPRPRPRPLDCPRP` , answer whether its shrunken log2 fold change meets or surpasses -0.01.
Result: 0.0

Request: Given the entry `RRIRARPPRLPRPRPRPMNQPRP` , answer whether its shrunken log2 fold change meets or surpasses -0.01.
Result: 0.0

Request: Given the entry `RRIRCRPPRLPRPRPRPFAEPRP` , answer whether its shrunken log2 fold change meets or surpasses -0.01.
Result: 0.0

Request: Given the entry `RRIRPRPPRLPRPRPRPMLQPRP` , answer whether its shrunken log2 fold change meets or surpasses -0.01.
Result: 0.0

Request: Given the entry `RRIRTRPPRLPRPRPRPKQMPRP` , answer whether its shrunken log2 fold change meets or surpasses -0.01.
Result: 1.0

Request: Given the entry `RRIRMRPPRLPRPRPRPVIPPRP` , answer whether its shrunken log2 fold change meets or surpasses -0.01.
Result: 0.0

Request: Given the entry `RRIRQRPPRLPRPRPRPKMTPRP` , answer whether its shrunken log2 fold change meets or surpasses -0.01.
Result: 1.0

Request: Given the entry `RRIRPRPPRLPRPRPRPGKYPRP` , answer whether its shrunken log2 fold change meets or surpasses -0.01.
Result: 0.0

Request: Given the entry `RRIRGRPPRLPRPRPRPGCKPRP` , answer whether its shrunken log2 fold change meets or surpasses -0.01.
Result: 1.0

Request: Given the entry `RRIRERPPRLPRPRPRPQGGPRP` , answer whether its shrunken log2 fold change meets or surpasses -0.01.
Result: 0.0

Request: Given the entry `RRIRHRPPRLPRPRPRPKLFPRP` , answer whether its shrunken log2 fold change meets or surpasses -0.01.
Result: 1.0

Request: Given the entry `RRIRERPPRLPRPRPRPAYHPRP` , answer whether its shrunken log2 fold change meets or surpasses -0.01.
Result: 0.0

Request: Given the entry `RRIRVRPPRLPRPRPRPWHAPRP` , answer whether its shrunken log2 fold change meets or surpasses -0.01.
Result: 0.0

Request: Given the entry `RRIRCRPPRLPRPRPRPPKEPRP` , answer whether its shrunken log2 fold change meets or surpasses -0.01.
Result: 1.0

Request: Given the entry `RRIRHRPPRLPRPRPRPNCVPRP` , answer whether its shrunken log2 fold change meets or surpasses -0.01.
Result: 0.0

---

system: Escherichia coli TOP10; assay: shrunken log2 fold change of peptide-encoding DNA abundance (4.5 h post-induction vs induction); higher = less antimicrobial activity (less host growth inhibition); conditions: time post-induction: 4.5 h; library: site-saturation at positions 5, 18, 19, 20;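 also: peptides expressed intracellularly from a pBAD plasmid library in pooled LB shake-flask culture, induced with 0.3% L-arabinose, DNA abundance read by NGS, three biological replicates, DESeq2 with apeglm shrinkage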
ENDPOINT_LABEL: shrunken log2 fold change
# answer = number (no unit)

Request: # get_value(readout='shrunken log2 fold change', item= `RRIRDRPPRLPRPRPRPGQDPRP` )
Result: 0.945

Request: # get_value(readout='shrunken log2 fold change', item= `RRIRTRPPRLPRPRPRPRPIPRP` )
Result: -0.138

Request: # get_value(readout='shrunken log2 fold change', item= `RRIRNRPPRLPRPRPRPLGDPRP` )
Result: 0.218

Request: # get_value(readout='shrunken log2 fold change', item= `RRIRKRPPRLPRPRPRPGCGPRP` )
Result: 0.761

Request: # get_value(readout='shrunken log2 fold change', item= `RRIRGRPPRLPRPRPRPGVAPRP` )
Result: 1.53

Request: # get_value(readout='shrunken log2 fold change', item= `RRIRYRPPRLPRPRPRPDMEPRP` )
Result: -0.0135

Request: # get_value(readout='shrunken log2 fold change', item= `RRIRKRPPRLPRPRPRPARRPRP` )
Result: 0.888

Request: # get_value(readout='shrunken log2 fold change', item= `RRIRWRPPRLPRPRPRPGSMPRP` )
Result: -0.0806

Request: # get_value(readout='shrunken log2 fold change', item= `RRIRSRPPRLPRPRPRPFYHPRP` )
Result: -0.28

Request: # get_value(readout='shrunken log2 fold change', item= `RRIRKRPPRLPRPRPRPLSAPRP` )
Result: 0.402

Request: # get_value(readout='shrunken log2 fold change', item= `RRIRARPPRLPRPRPRPWPKPRP` )
Result: 0.508

Request: # get_value(readout='shrunken log2 fold change', item= `RRIRDRPPRLPRPRPRPPTRPRP` )
Result: 0.596

Request: # get_value(readout='shrunken log2 fold change', item= `RRIRKRPPRLPRPRPRPWGQPRP` )
Result: 0.0379

Request: # get_value(readout='shrunken log2 fold change', item= `RRIRLRPPRLPRPRPRPGLAPRP` )
Result: 0.164

Request: # get_value(readout='shrunken log2 fold change', item= `RRIRYRPPRLPRPRPRPEMGPRP` )
Result: -0.0771
